Assign MIC to each entry below.
# Test system: Mycobacterium tuberculosis
# assayRemarks: Antitubercular activity against Mycobacterium tuberculosis H37Rv after 2 weeks by agar dilution method
# Type: functional
# setupConditions: 336 h
One number for each entry, in µM.

// known answers, use as guide
querySmiles	unitsText	MIC
CC(=O)O[C@H]1[C@@H](OC(=O)c2ccccc2)C[C@@H](C)[C@]23OC(C)(C)[C@H](C[C@H](OC(=O)c4ccccc4)[C@]12COC(=O)c1ccccc1)[C@H]3OC(=O)c1ccccc1	µM	105
CC[C@@H](CO)NCCN[C@@H](CC)CO	µM	30.6
CC(=O)O[C@@H]1[C@H]2C[C@H](OC(=O)c3ccccc3)[C@]3(COC(=O)c4ccccc4)[C@@H](OC(C)=O)[C@@H](OC(=O)c4ccccc4)C[C@@H](C)[C@@]13OC2(C)C	µM	85.9
COc1cc(/C=C\C(=O)OC[C@H](Cc2ccc(O)c(OC)c2)[C@H](COC(=O)/C=C\c2ccc(O)c(OC)c2)Cc2ccc(O)c(OC)c2)ccc1O	µM	122

// switching to the query molecule
CC(=O)O[C@H]1C[C@@H](C)[C@]23OC(C)(C)[C@H]([C@H](OC(=O)c4ccccc4)[C@H](OC(=O)c4ccccc4)[C@]2(COC(=O)c2ccccc2)[C@H]1OC(C)=O)[C@H]3OC(C)=O on Mycobacterium tuberculosis gives MIC = 79.3

---

# Tested on: Mycobacterium tuberculosis
# assayRemarks: Antitubercular activity against Mycobacterium tuberculosis H37Rv after 2 weeks by agar dilution method
# Type: functional
# setupConditions: 336 h
observationType: MIC (µM)
Give bare numbers, in µM.

compound	tgt	unitsText	numericReadout
COc1cc(C(=O)C(CO)c2ccc(O)c(OC)c2)ccc1O (stereo not given)	Mycobacterium tuberculosis	µM	235

Look at each compound and report its MIC.
1. COc1cc(O)c2c(c1)O[C@H](c1ccc(O)cc1)CC2=O
2. CC(=O)OC[C@]12[C@@H](OC(=O)c3ccccc3)C[C@@H]3[C@@H](OC(C)=O)[C@]1(OC3(C)C)[C@H](C)C[C@H](O)[C@@H]2OC(C)=O
3. COc1cc2ccc(=O)oc2cc1OC
4. CC(=O)OC[C@]12[C@@H](OC(=O)c3ccccc3)C[C@@H]3[C@@H](OC(C)=O)[C@]1(OC3(C)C)[C@H](C)C[C@H](OC(C)=O)[C@@H]2O
5. COc1cc(C(=O)O)ccc1O
6. COc1cc(C(=O)C(CO)c2cc(OC)c(O)c(OC)c2)ccc1O (stereo not given)
7. COc1cc(C(=O)CCO)ccc1O
8. CC(=O)O[C@H]1C[C@@H](COC(=O)c2ccccc2)[C@]23OC(C)(C)[C@H](C[C@H](OC(=O)c4ccccc4)[C@]2(C)[C@H]1OC(C)=O)[C@H]3OC(=O)c1ccccc1

Data returned:
1: 209; 2: 28.2; 3: 388; 4: 31.3; 5: 238; 6: 215; 7: 153; 8: 95

Look at each compound and report its MIC.
1. CC[C@H](CC[C@@H](C)[C@H]1CC[C@H]2[C@@H]3C(=O)C=C4C[C@@H](O)CC[C@]4(C)[C@H]3CC[C@]12C)C(C)C
2. CC(=O)OC[C@]12[C@@H](OC(=O)c3ccccc3)C[C@@H]3[C@@H](OC(=O)c4ccccc4)[C@]1(OC3(C)C)[C@H](C)C[C@H](OC(=O)c1ccccc1)[C@@H]2OC(C)=O
3. COc1cc(/C=C/C(=O)OC[C@H](Cc2ccc(O)c(OC)c2)[C@H](COC(=O)/C=C/c2ccc(O)c(OC)c2)Cc2ccc(O)c(OC)c2)ccc1O

Data returned:
[128, 39.6, 126]

---

# Tested on: Mycobacterium tuberculosis
# assayRemarks: Antitubercular activity against Mycobacterium tuberculosis H37Rv after 2 weeks by agar dilution method
# Format: functional
# setupConditions: 336 h
Assign MIC to each entry below.

// known answers, use as guide
> print(dat)
            querysmiles                         tgt  observationtype    result
1            CN1CCCC1=O  Mycobacterium tuberculosis              MIC  > 400 µM
2  COc1cc(C=O)cc(OC)c1O  Mycobacterium tuberculosis              MIC  > 400 µM

// switching to the query compound
Given item COc1cc(/C=C/C=O)ccc1O , the value recorded as its MIC is > 400 µM

---

# Tested on: Mycobacterium tuberculosis
# assayRemarks: Antitubercular activity against Mycobacterium tuberculosis H37Rv after 2 weeks by agar dilution method
# Assay type: functional
# setupConditions: 336 h
observationType: MIC

// known answers, use as guide
> print(dat)
                             molecule    result
1         COc1cc(C=O)ccc1O [VANILLIN]  > 400 µM
2  CCOc1cc(C=O)ccc1O [ETHYL VANILLIN]  > 400 µM

// switching to the query molecule
Given item CC[C@H](CC[C@@H](C)[C@H]1CC[C@H]2[C@@H]3CC=C4C[C@@H](O)CC[C@]4(C)[C@H]3CC[C@]12C)C(C)C [BETA-SITOSTEROL] , the value recorded as its MIC is > 400 µM

Recorded values, source ChEMBL document CHEMBL1157396.
